The following molecules are shown together with reported log K values.
- experimental details: Lipophilicity, logK of the compound by RP-HPLC analysis
- Format: physicochemical

chemical string	log K
O=C(NCc1ccccc1)c1cncc(Cl)n1	0.2
CCCCCCCCNc1nccnc1C(=O)NCc1ccccc1	2.054
O=C(NCc1ccccc1)c1nccnc1NCc1ccccc1	1.04
CCCCCCCCNc1cncc(C(=O)NCc2ccccc2)n1	1.431
O=C(NCc1ccccc1)c1cnc(Cl)cn1	0.186
CCCCNc1nccnc1C(=O)NCc1ccccc1	1.081
CCCCCCCNc1cnc(C(=O)NCc2ccccc2)cn1	1.089
CCCCCCNc1cncc(C(=O)NCc2ccccc2)n1	0.986
CCCCCNc1nccnc1C(=O)NCc1ccccc1	1.321
NNC(=O)c1ccncc1	-0.743
O=C(NCc1ccccc1)c1cncc(NCc2ccccc2)n1	0.483
CCCCNc1cncc(C(=O)NCc2ccccc2)n1	0.549
CCCCCCCCNc1cnc(C(=O)NCc2ccccc2)cn1	1.312

###

- experimental details: Cytotoxicity against HEL cells assessed as cell viability after 4 to 6 days by microscopic analysis
- Type: cell-based
- test parameters: human
The following compounds are shown together with reported MCC values.

chemical string	MCC
CCCCNc1nccnc1C(=O)NCc1ccccc1	> 100 µM
CCCCCCCNc1nccnc1C(=O)NCc1ccccc1	100 µM
CCCCCCCNc1cnc(C(=O)NCc2ccccc2)cn1	> 100 µM
CCCCNc1cnc(C(=O)NCc2ccccc2)cn1	> 100 µM
CCCCCCNc1cncc(C(=O)NCc2ccccc2)n1	> 100 µM
CCCCNc1cncc(C(=O)NCc2ccccc2)n1	> 100 µM
CCCCCCCNc1cncc(C(=O)NCc2ccccc2)n1	> 100 µM
CCCCCNc1cncc(C(=O)NCc2ccccc2)n1	> 100 µM
O=C(NCc1ccccc1)c1nccnc1NCc1ccccc1	> 100 µM
CCCCCCCCNc1nccnc1C(=O)NCc1ccccc1	> 100 µM
CCCCCNc1cnc(C(=O)NCc2ccccc2)cn1	> 100 µM
CCCCCCCCNc1cncc(C(=O)NCc2ccccc2)n1	> 100 µM
CCCCCCNc1nccnc1C(=O)NCc1ccccc1	100 µM

###

The following compounds are shown together with reported MCC values.
- experimental details: Cytotoxicity against African green monkey Vero cells assessed as cell viability after 4 to 6 days by microscopic analysis
- Type: cell-based
- test parameters: chlorocebus sabaeus
endpoint name: MCC

chemical string	endpoint name	result
CCCCCCCCNc1cncc(C(=O)NCc2ccccc2)n1	MCC	> 100 µM
CCCCCCNc1nccnc1C(=O)NCc1ccccc1	MCC	> 100 µM
CCCCCCCNc1cnc(C(=O)NCc2ccccc2)cn1	MCC	≥ 100 µM
CCCCCCCNc1nccnc1C(=O)NCc1ccccc1	MCC	> 100 µM
CCCCCNc1cnc(C(=O)NCc2ccccc2)cn1	MCC	> 100 µM
CCCCCCNc1cncc(C(=O)NCc2ccccc2)n1	MCC	100 µM
CCCCCCNc1cnc(C(=O)NCc2ccccc2)cn1	MCC	≥ 100 µM

###

- System: Influenza A virus
- experimental details: Antiviral activity against Influenza A virus (A/Puerto Rico/8/(H1N1)) assessed as inhibition of virus-induced cytopathic effect after 3 to 6 days by formazan-based MTS assay
- Format: functional, organism-based
endpoint name: EC50

chemical string	result
CCCCCCNc1cncc(C(=O)NCc2ccccc2)n1	> 100 µM
CCCCCCCNc1nccnc1C(=O)NCc1ccccc1	> 100 µM
CCCCNc1nccnc1C(=O)NCc1ccccc1	> 100 µM
CCCCNc1cnc(C(=O)NCc2ccccc2)cn1	> 100 µM
CCCCCCCCNc1cncc(C(=O)NCc2ccccc2)n1	> 100 µM
CCCCCNc1cncc(C(=O)NCc2ccccc2)n1	> 100 µM
CCCCCCCCNc1cnc(C(=O)NCc2ccccc2)cn1	> 100 µM
O=C(NCc1ccccc1)c1nccnc1NCc1ccccc1	> 100 µM
CCCCCCNc1cnc(C(=O)NCc2ccccc2)cn1	62 µM
CCCCNc1cncc(C(=O)NCc2ccccc2)n1	> 100 µM
CCCCCNc1cnc(C(=O)NCc2ccccc2)cn1	3.3 µM
CCCCCNc1nccnc1C(=O)NCc1ccccc1	> 100 µM
CCCCCCCCNc1nccnc1C(=O)NCc1ccccc1	> 100 µM
CCCCCCNc1nccnc1C(=O)NCc1ccccc1	> 100 µM
CCCCCCCNc1cnc(C(=O)NCc2ccccc2)cn1	47 µM
CCCCCCCNc1cncc(C(=O)NCc2ccccc2)n1	> 100 µM

Just for reference, ChEMBL document CHEMBL3745676 is where these values come from.
